TARGET_OF_ASSAY: Voltage-dependent N-type calcium channel subunit alpha-1B (Homo sapiens) (UniProt Q00975)
Sequence (Q00975 whole entry, looked up): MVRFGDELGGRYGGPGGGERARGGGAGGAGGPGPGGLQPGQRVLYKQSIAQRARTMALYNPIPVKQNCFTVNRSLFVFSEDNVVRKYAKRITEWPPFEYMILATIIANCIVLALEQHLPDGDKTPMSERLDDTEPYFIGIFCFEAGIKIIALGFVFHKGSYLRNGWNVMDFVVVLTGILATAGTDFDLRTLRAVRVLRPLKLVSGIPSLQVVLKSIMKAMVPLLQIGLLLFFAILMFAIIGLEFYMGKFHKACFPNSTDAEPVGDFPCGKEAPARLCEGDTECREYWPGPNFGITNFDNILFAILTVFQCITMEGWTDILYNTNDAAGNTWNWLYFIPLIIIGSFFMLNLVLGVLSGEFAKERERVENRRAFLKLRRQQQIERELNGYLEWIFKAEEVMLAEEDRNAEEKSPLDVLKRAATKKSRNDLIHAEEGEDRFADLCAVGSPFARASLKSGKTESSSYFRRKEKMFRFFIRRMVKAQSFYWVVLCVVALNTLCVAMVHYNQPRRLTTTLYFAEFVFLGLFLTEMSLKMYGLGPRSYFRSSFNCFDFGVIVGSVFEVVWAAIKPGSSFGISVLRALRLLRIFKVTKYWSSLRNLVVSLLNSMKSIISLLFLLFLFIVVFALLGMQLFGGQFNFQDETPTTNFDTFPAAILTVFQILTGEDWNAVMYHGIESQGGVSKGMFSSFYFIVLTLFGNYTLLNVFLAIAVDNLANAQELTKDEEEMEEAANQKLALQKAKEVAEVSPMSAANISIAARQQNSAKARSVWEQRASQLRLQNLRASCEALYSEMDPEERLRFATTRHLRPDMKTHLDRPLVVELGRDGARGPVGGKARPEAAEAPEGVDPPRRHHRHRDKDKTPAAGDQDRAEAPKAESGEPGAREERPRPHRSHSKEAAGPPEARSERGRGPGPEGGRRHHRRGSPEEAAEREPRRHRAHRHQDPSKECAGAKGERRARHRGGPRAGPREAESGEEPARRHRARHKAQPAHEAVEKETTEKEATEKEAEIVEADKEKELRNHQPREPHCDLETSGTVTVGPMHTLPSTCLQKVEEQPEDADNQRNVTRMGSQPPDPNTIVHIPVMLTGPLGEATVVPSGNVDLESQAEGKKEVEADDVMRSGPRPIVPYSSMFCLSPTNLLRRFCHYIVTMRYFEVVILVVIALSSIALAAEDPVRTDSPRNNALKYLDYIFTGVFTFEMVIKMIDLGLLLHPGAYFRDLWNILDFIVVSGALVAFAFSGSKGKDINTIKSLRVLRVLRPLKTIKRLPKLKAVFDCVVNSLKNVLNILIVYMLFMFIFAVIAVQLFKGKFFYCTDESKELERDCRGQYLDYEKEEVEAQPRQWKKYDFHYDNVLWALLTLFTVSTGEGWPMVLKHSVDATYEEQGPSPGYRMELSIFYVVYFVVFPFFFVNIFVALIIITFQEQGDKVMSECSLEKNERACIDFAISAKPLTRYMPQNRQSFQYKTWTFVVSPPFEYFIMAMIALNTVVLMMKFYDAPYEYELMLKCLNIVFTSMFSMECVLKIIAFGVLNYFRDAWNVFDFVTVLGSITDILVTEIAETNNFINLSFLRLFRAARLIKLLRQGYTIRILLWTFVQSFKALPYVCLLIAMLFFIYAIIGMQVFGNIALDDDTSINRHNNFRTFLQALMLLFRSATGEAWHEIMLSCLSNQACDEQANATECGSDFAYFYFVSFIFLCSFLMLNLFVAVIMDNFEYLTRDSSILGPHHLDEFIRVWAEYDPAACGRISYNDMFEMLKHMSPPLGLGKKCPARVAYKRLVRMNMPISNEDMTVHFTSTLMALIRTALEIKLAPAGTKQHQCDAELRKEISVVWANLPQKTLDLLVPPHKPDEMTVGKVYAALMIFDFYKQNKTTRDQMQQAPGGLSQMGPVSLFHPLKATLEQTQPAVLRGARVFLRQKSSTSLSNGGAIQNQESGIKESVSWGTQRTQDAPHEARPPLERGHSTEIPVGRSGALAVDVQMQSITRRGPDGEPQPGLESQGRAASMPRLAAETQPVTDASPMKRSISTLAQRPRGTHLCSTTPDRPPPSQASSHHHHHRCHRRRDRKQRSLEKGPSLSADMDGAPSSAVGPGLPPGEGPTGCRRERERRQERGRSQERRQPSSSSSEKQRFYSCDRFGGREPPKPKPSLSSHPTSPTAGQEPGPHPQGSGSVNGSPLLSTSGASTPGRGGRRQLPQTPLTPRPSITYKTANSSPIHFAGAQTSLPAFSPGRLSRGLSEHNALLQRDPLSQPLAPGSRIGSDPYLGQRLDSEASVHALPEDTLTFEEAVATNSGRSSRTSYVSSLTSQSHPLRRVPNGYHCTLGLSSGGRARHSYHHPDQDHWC
TEST_NAME: disruptors of CaV2.2 binding to Mint1 – biochemical, HTRF (AID 2073)
APPLIED_CONDITIONS: HTRF protein-protein interaction, Mint1-CaV2.2; at 20 µM
Out of some 290,000 compounds screened, about 570 (0.2%) were called active. About 1% were inconclusive and are not listed. Rule as the data show it: active = inhibition mostly above about 51% (no sharp cut-off); inconclusive = no clear call, values can overlap the other calls; inactive = mostly below about 53%. Only a selection was taken, and actives are over-represented in it overall.
Possible outcomes: yes (active), no (inactive)

> print(dat)
                                    molecule  class.label
 1  O=C(CSc1nnc(-c2ccco2)n1-c1ccccc1)NCC1CCCO1 (stereo not given)           no
 2  COc1ccc(N2CCN(C(=O)c3ccc4c(=O)n5c(nc4c3)CCCCC5)CC2)cc1           no
 3  Cc1ccc(C)c(NC(=O)CSc2nc3ccc(N4C(=O)c5ccccc5C4=O)cc3s2)c1           no
 4  O=C(CSc1nc2scc(-c3ccco3)c2c(=O)n1-c1ccccc1)NCC1CCCO1 (stereo not given)          yes
 5  Cc1cc(C)c(NC(=O)CSc2nc3ccc(N4C(=O)c5ccccc5C4=O)cc3s2)c(C)c1          yes
 6                  CCCCP(=O)(CCCC)Cc1ccccc1           no
 7            O=S(=O)(NC1=NCCCCC1)c1ccccc1Cl           no
 8  C=CCn1c(SCC(=O)NCC2CCCO2)nc2scc(-c3ccco3)c2c1=O (stereo not given)           no
 9  CCc1cccc(C)c1NC(=O)CSc1nc2ccc(N3C(=O)c4ccccc4C3=O)cc2s1           no
10  CCOC(=O)N1CCN(C(=O)CSc2nc3c(cnn3-c3ccc(C)cc3)c(=O)[nH]2)CC1           no

====

TARGET_OF_ASSAY: Voltage-dependent N-type calcium channel subunit alpha-1B (Homo sapiens) (UniProt Q00975)
TEST_NAME: disruptors of CaV2.2 binding to Mint1 – biochemical, HTRF (AID 2073)
APPLIED_CONDITIONS: HTRF protein-protein interaction, Mint1-CaV2.2; at 20 µM; stronger effect = higher value
The campaign covered roughly 290,000 compounds. About 570 (0.2%) were called active. Inconclusive results (about 1%) are left out. Shown is part of a subset that was picked to be rich in actives.
Listing of entries alongside the reported inhibition.
ASSAY_READOUT: inhibition (%)

> print(dat)
                                   compound                           target.of.assay  u  value
1            COc1ccccc1C(=O)OCC(=O)NC1CCCC1  Voltage-dependent N-type calcium channel subunit alpha-1B (Homo sapiens) (UniProt Q00975)  %   16.7
2  CC(C)(C)OC(=O)N/N=C/c1cc(N=Nc2ccccc2)ccc1O  Voltage-dependent N-type calcium channel subunit alpha-1B (Homo sapiens) (UniProt Q00975)  %    3.5
3  CN1CCN(c2ccccc2NC(=O)c2ccc3c(c2)OCCO3)CC1  Voltage-dependent N-type calcium channel subunit alpha-1B (Homo sapiens) (UniProt Q00975)  %    8.9
4  CN(Cc1c(C(=O)N2CCCCCCC2)nc2ccc(Cl)cn12)C1CCOC1 (stereo unspecified)  Voltage-dependent N-type calcium channel subunit alpha-1B (Homo sapiens) (UniProt Q00975)  %    -10
5  Cc1ccnc(NS(=O)(=O)c2ccc(NC(=O)C3CCCO3)cc2)n1 (stereo unspecified)  Voltage-dependent N-type calcium channel subunit alpha-1B (Homo sapiens) (UniProt Q00975)  %     -3
6  Cc1ccc(N2C(=O)N3[C@H](c4ccc(F)cc4)[C@@H]4C(=O)N(C5CCCCC5)C(=O)[C@@H]4[C@]3(C)C2=O)cc1  Voltage-dependent N-type calcium channel subunit alpha-1B (Homo sapiens) (UniProt Q00975)  %    3.5

====

The molecules listed here are annotated with their inhibition.
TARGET_OF_ASSAY: Voltage-dependent N-type calcium channel subunit alpha-1B (Homo sapiens) (UniProt Q00975)
TEST_NAME: disruptors of CaV2.2 binding to Mint1 – biochemical, HTRF (AID 2073)
APPLIED_CONDITIONS: HTRF protein-protein interaction, Mint1-CaV2.2; at 20 µM; stronger effect = higher value
The whole screen tested about 290,000 compounds, of which about 570 (0.2%) were called active. Not shown: some 1% with an inconclusive outcome. The full list was thinned out, with actives kept by preference.
ASSAY_READOUT: inhibition

> print(dat)
                                    molecule             value
 1            O=C(NCc1ccco1)c1cnc2ccccn2c1=O   0.3% (inactive)
 2  CN1CCN(c2ccccc2NC(=O)c2cccc(OCc3ccccc3)c2)CC1    19% (inactive)
 3  CC(NC(=O)c1cc(Br)ccc1Br)c1ccccc1 (stereo not drawn)  15.9% (inactive)
 4     O=C(c1ccco1)N1CCN(Cc2cccc3ccccc23)CC1   3.9% (inactive)
 5  O=C(NCc1ccco1)c1cccn2c(=O)c3cc4ccccc4cc3nc12    54.4% (active)
 6  Cc1ccccc1C(=O)NC(C(N)=O)P(=O)(OC(C)C)OC(C)C (stereo not drawn)  -2.5% (inactive)
 7  O=C(/C(=N/N=C/c1ccc(O)c(O)c1O)c1ccccc1)c1ccccc1    66.2% (active)
 8  CCC(C)/C(C)=N/NC(=O)CSc1nc2ccccc2[nH]1 (stereo not drawn)  -5.4% (inactive)
 9       Cc1ccc(C2=CSC3=NNC4(CCCCC4)NN23)cc1   8.9% (inactive)
10  CCOc1cc(C(c2c(C)[nH][nH]c2=O)c2c(C)[nH][nH]c2=O)cc(Br)c1OC   5.6% (inactive)
11  COc1cc(/C=N/N=C(/C(=O)c2ccccc2)c2ccccc2)cc(OC)c1O  -2.5% (inactive)
12           O=C(/C=C/c1ccc(Br)o1)NCc1ccccc1  76.8% (inactive)
13  O=C(Nc1cccc(S(=O)(=O)N2CCOCC2)c1)c1c2c(nc3ccccc13)CCC2      56% (active)
14  Cc1ccc(CNC(=O)CN2C(=O)NC(C)(c3ccccc3Cl)C2=O)cc1 (stereo not drawn)   6.8% (inactive)
15         Fc1ccc(C2=Nc3cccc4cccc(c34)N2)cc1  -8.3% (inactive)
16           c1coc(C2=Nc3cccc4cccc(c34)N2)c1    54.2% (active)
17      Cc1ccc(NC(=O)NC(=O)CSc2nnnn2C)c(C)c1  -7.8% (inactive)
18       CCOC(=O)c1c(NC(=O)COC)sc(C(C)=O)c1C   6.4% (inactive)
19  O=C(NCc1nnc2c(C(F)(F)F)cc(Cl)cn12)c1ccc2c(c1)OCO2     9% (inactive)
20  COCCCNC(=O)c1cccn2c(=O)c3cc4ccccc4cc3nc12  -3.3% (inactive)
21  CC1CN(C(=O)CCCN2C(=O)c3ccccc3C2=O)CC(C)O1 (stereo not drawn)  -7.3% (inactive)
22            Cc1ccc(NC(=O)c2nsc(Cl)c2Cl)cc1  18.9% (inactive)
23  COc1ccc(NC(=O)c2c3c(nc4ccccc24)CCC3)cc1S(=O)(=O)N1CCOCC1  59.4% (inactive)

====

TARGET_OF_ASSAY: Voltage-dependent N-type calcium channel subunit alpha-1B (Homo sapiens) (UniProt Q00975)
TEST_NAME: disruptors of CaV2.2 binding to Mint1 – biochemical, HTRF (AID 2073)
APPLIED_CONDITIONS: HTRF protein-protein interaction, Mint1-CaV2.2; at 20 µM; stronger effect = higher value
The campaign covered roughly 290,000 compounds. About 570 (0.2%) were called active. Another 1% or so got no clear call; they are omitted. This excerpt belongs to a sample that is enriched for actives.
Decision: inhibition compared against 20%; not below it gives fulfilled, below it gives not fulfilled.

> print(dat)
                                    compound    class.label
 1  COc1ccc2oc(=Nc3ccccc3)c(-c3nc4ccccc4[nH]3)cc2c1      fulfilled
 2  Cc1ccc(NC(=O)c2cc(N3C(=O)C=CC3=O)ccc2Cl)cc1C      fulfilled
 3  CCOC(=O)C1CCN(C(=O)CN(c2ccc3c(c2)OCCO3)S(C)(=O)=O)CC1  not fulfilled
 4  COc1cc(/C=C/c2ccc3c(Br)cc(Br)c(O)c3n2)ccc1O      fulfilled
 5  CCOC(=O)C(O)(CC(=O)c1ccc(OC)cc1)C(F)(F)F (stereo not given)  not fulfilled
 6  Cn1c(/C=C/c2cccc([N+](=O)[O-])c2)nc2ccccc2c1=O  not fulfilled
 7  COc1cccc(N=c2oc3ccccc3cc2-c2nc3ccccc3[nH]2)c1  not fulfilled
 8  Cc1ccc(NC(=O)c2cc(N3C(=O)C=CC3=O)ccc2N2CCOCC2)cc1Cl  not fulfilled
 9  CS(=O)(=O)N(CC(=O)Nc1ccc2c(c1)OCCO2)Cc1ccc(Cl)cc1  not fulfilled
10  COCCOC(=O)c1c(C)n(C)c2ccc(OC(=O)c3ccccc3F)cc12  not fulfilled
